condition-notes: in n-propanol, 318.2 K
measurement-type: solubility (mole fraction)
Number, no unit, nothing else.

[[record]]
compound = "Cc1nnc(C(C)C)n1C1C[C@H]2CC[C@@H](C1)N2CC[C@H](NC(=O)C1CCC(F)(F)CC1)c1ccccc1 (some centres not stated)"
measurement_type = "solubility (mole fraction)"
endpoint_value = 0.00311


Query compound follows.
Provide solubility (mole fraction) value for the following compound: O=C(Nc1c(Cl)cncc1Cl)c1ccc(OC(F)F)c(OCC2CC2)c1
0.000625

---

condition-notes: in 2-pentanone, 323.2 K
Measured solubility (mole fraction), listed per entry for reference.
Number only, no unit.

[[record]]
molecule = "O=C(Nc1c(Cl)cncc1Cl)c1ccc(OC(F)F)c(OCC2CC2)c1"
endpoint_value = 0.00101


Now take the following molecule into account.
Indicate the recorded solubility (mole fraction) value for this molecule: Cc1nnc(C(C)C)n1C1C[C@H]2CC[C@@H](C1)N2CC[C@H](NC(=O)C1CCC(F)(F)CC1)c1ccccc1 (some centres not stated)
0.00316

---

condition-notes: in 2-butanone, 318.2 K
Overview of recorded solubility (mole fraction) for various compounds
# answer = number (no unit)

[[record]]
compound = "O=C(Nc1c(Cl)cncc1Cl)c1ccc(OC(F)F)c(OCC2CC2)c1"
endpoint_value = 0.00081


For the next question, use this compound.
Provide solubility (mole fraction) value for the following compound: Cc1nnc(C(C)C)n1C1C[C@H]2CC[C@@H](C1)N2CC[C@H](NC(=O)C1CCC(F)(F)CC1)c1ccccc1 (some centres not stated)
0.00257

---

condition-notes: in water, 288.2 K
measurement-type: solubility (mole fraction)
// return a plain number; no unit text

Give solubility (mole fraction) for the following compound: Cc1nnc(C(C)C)n1C1C[C@H]2CC[C@@H](C1)N2CC[C@H](NC(=O)C1CCC(F)(F)CC1)c1ccccc1 (stereo partly specified)
1.2e-05

Entry source: BigSolDB 2.1
